# Test system: HL-60
# testProtocol: Antiproliferative activity against human HL60 cells after 72 hrs by XTT assay
# Format: functional, cell-based
# conditionSummary: HL-60, 72 h

| querySmiles | qual | IC50 / µM |
| --- | --- | --- |
| CN(C)c1ncnc2c1c(-c1cccs1)cn2[C@@H]1O[C@H](CO)[C@@H](O)[C@H]1O | = | 11.8 |
| O=c1[nH]cnc2c1c(-c1cccs1)cn2[C@@H]1O[C@H](CO)[C@@H](O)[C@H]1O | > | 20 |
| CNc1ncnc2c1c(-c1cc3ccccc3o1)cn2[C@@H]1O[C@H](CO)[C@@H](O)[C@H]1O | = | 8.95 |
| CSc1ncnc2c1c(-c1ccco1)cn2[C@@H]1O[C@H](CO)[C@@H](O)[C@H]1O | = | 0.12 |
| Cc1nc(N)c2ccn([C@@H]3O[C@H](CO)[C@@H](O)[C@H]3O)c2n1 | > | 20 |
| CSc1ncnc2c1c(-c1ccoc1)cn2[C@@H]1O[C@H](CO)[C@@H](O)[C@H]1O | = | 0.36 |
| COc1ncnc2c1c(-c1ccccc1)cn2[C@@H]1O[C@H](CO)[C@@H](O)[C@H]1O | > | 20 |
| COc1ncnc2c1c(-c1cc3ccccc3o1)cn2[C@@H]1O[C@H](CO)[C@@H](O)[C@H]1O | = | 4.47 |
